- studyTarget: Platelet-derived growth factor receptor beta (Homo sapiens)
- Sequence (P09619 whole entry): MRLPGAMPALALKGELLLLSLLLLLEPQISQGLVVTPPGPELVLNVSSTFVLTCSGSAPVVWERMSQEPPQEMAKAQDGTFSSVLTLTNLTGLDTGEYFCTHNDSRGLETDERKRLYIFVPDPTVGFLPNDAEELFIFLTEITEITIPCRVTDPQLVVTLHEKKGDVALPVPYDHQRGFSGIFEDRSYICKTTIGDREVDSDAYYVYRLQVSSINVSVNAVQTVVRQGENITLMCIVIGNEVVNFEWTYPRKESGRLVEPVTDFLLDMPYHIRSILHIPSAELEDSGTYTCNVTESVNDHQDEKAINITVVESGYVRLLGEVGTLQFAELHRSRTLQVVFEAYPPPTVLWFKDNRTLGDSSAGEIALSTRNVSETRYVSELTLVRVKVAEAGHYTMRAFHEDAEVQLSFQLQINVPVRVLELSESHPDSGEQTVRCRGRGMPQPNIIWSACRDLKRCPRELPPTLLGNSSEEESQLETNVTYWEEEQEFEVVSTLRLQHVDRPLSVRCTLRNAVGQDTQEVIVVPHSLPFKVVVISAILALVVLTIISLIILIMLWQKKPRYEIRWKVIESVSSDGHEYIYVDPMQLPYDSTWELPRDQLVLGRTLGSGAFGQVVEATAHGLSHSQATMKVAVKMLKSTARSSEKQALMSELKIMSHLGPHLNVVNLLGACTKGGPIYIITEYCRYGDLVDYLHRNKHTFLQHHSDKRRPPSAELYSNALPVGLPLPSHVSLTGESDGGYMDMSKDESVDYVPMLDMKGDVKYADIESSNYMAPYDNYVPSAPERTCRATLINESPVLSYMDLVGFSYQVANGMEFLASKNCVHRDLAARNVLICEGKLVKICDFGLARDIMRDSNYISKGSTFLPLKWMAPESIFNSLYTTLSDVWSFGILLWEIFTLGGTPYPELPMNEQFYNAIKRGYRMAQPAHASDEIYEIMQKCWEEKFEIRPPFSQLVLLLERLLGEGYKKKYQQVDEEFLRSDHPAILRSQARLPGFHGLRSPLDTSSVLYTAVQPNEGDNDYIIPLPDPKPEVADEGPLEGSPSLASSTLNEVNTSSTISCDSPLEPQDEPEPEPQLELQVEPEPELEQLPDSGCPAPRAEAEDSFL
- measurementDescription: Inhibition of recombinant PDGFRbeta (unknown origin) using poly-Glu-Tyr peptide as substrate
Below, each entry is listed with its recorded IC50.
Kindly answer with a numeric value in µM, unit omitted.

These solved cases illustrate the format of a correct answer.
>  <entrySmiles>
C#Cc1cccc(Nc2ncnc3ccc(OCc4ccc(C(=O)Nc5ccccc5N)cc4)cc23)c1

>  <IC50, µM>
7.2

$$$$
>  <entrySmiles>
C#Cc1cccc(Nc2ncnc3ccc(S(=O)(=O)n4ccc(/C=C/C(=O)Nc5ccccc5N)c4)cc23)c1

>  <IC50, µM>
16

$$$$
>  <entrySmiles>
C#Cc1cccc(Nc2ncnc3ccc(S(=O)(=O)n4ccc(/C=C/C(=O)NO)c4)cc23)c1

>  <IC50, µM>
70

$$$$

We next turn to a different molecule, shown below.
May I ask what IC50 has been recorded for Nc1ccccc1NC(=O)c1ccc(COc2ccc3ncnc(Nc4cccc(Br)c4)c3c2)cc1 ? 28
